Biological target: Proteasome subunit beta (Trypanosoma cruzi) (UniProt O96673)
Sequence (whole entry): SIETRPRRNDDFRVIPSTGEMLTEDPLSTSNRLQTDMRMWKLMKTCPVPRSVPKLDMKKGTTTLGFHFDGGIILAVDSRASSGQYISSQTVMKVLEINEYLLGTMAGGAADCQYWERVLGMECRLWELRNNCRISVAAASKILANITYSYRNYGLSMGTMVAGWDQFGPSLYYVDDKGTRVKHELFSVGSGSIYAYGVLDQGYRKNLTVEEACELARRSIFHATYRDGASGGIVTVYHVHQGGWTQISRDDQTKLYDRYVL
Assay: Trypanosoma cruzi proteasome chymotrypsin-like activity (TcProtChymo) assay.
Format: functional
Set-up: scale not given: in the data most compounds retested in dose-response had high values
Conditions: 9.37 µM
outcome-measure: Percent Effect (%)
Hi! Could you send only the number? It should be in %, unit omitted.

Percent Effect lookup needed for CCn1nc(-c2ccccc2F)ccc1=O , thanks.
4.55

Percent Effect lookup needed for CCC(NC(=O)c1ccco1)c1ccccc1OCC(=O)N1CCCC1 (stereo not drawn) , thanks.
12.5

Percent Effect lookup needed for O=C1CCC2(CCN(Cc3nccs3)CC2)N1Cc1ccccc1 , thanks.
10.8

Percent Effect lookup needed for CCCN(CC)C(=O)c1cc2c(c3ccccc3n2C)n1C(=O)N(C)C , thanks.
6.27

Percent Effect lookup needed for O=S(=O)(NCCN1CCCCC1Cn1cncn1)c1ccccc1 (stereo not drawn) , thanks.
-5.61

Percent Effect lookup needed for O=S(=O)(c1ccccc1Cl)N1CCc2nc(C3CCNCC3)ncc2C1 , thanks.
12.2

Percent Effect lookup needed for CN(C)c1cc2c(nn1)CCN(C(=O)Cc1noc3ccccc13)C2 , thanks.
-0.427

Percent Effect lookup needed for Cn1ncc2c1NC(=O)CC2c1ccccc1Cl (stereo not drawn) , thanks.
6.62

Percent Effect lookup needed for CC(C)NC(=O)c1nnn(-c2cccc(C(F)(F)F)c2)c1N , thanks.
4.04

Percent Effect lookup needed for COC(=O)c1ccc(N2CCN(CCC(=O)NC(N)=O)C(C)C2)cc1 (stereo not drawn) , thanks.
-2.45

Percent Effect lookup needed for CS(=O)(=O)c1ccc(NC(=O)N2CCc3sccc3C2)cn1 , thanks.
18.3

Percent Effect lookup needed for CCCc1cc(C(=O)N2CCCC2c2cccnc2)[nH]n1 (stereo not drawn) , thanks.
17.1

Percent Effect lookup needed for Cc1ccc(NC2CCN(C(=O)c3cnc(C)s3)CC2)nn1 , thanks.
-0.594

Percent Effect lookup needed for Cc1nc(C)n(CC2CCCCN2Cc2ncc(C(C)(C)C)o2)n1 (stereo not drawn) , thanks.
19.1

Percent Effect lookup needed for NC(=O)CSCC(=O)N1CCc2cc(Cl)cc(Cl)c2C1 , thanks.
9.15

Percent Effect lookup needed for COc1ccc(-c2cnc(CN3CCn4c(C)nnc4C3)o2)cc1 , thanks.
7.18

Percent Effect lookup needed for Cc1nc([C@@H]2C[C@@H]3CCN(C(=O)Cc4ccsc4)C[C@H]3O2)no1 , thanks.
10.5

Percent Effect lookup needed for Cc1cc(C(=O)N2CCc3nnc(N(C)C)cc3C2)c(C)n1C1CC1 , thanks.
16.1

Percent Effect lookup needed for COc1ccc(CC(=O)N2CCCC(n3cc(C)cn3)C2)cc1F (stereo not drawn) , thanks.
4.16

Percent Effect lookup needed for CC(C)C(C)NC(=O)Nc1ccc(CS(C)(=O)=O)cc1 (stereo not drawn) , thanks.
15.6

Percent Effect lookup needed for CCc1nc(C2CCCN(C(=O)CN(C)S(C)(=O)=O)C2)no1 (stereo not drawn) , thanks.
9.3

Percent Effect lookup needed for CSc1ccccc1CN1CCCn2nc(CNC(=O)N(C)C)cc2C1 , thanks.
6.92

Percent Effect lookup needed for O=S(=O)(CCCN1CCCC1Cn1cccn1)c1ccccc1 (stereo not drawn) , thanks.
7.19

Percent Effect lookup needed for Cc1noc(C)c1-c1cnc(CC2CCN(C(=O)c3cc[nH]n3)C2)cn1 (stereo not drawn) , thanks.
7.02

Percent Effect lookup needed for O=C(c1cccn2ccnc12)N1CCCN(c2cccnn2)CC1 , thanks.
-0.404

Percent Effect lookup needed for CC(C)C(NC(=O)Cn1ccc(=O)n(C)c1=O)c1ccc(F)cc1 (stereo not drawn) , thanks.
7.19

Percent Effect lookup needed for Cc1cc(F)ccc1OC1(C(=O)O)CCN(Cc2ccncc2)CC1 , thanks.
11.7

Percent Effect lookup needed for CC(C)CCC(=O)NC(C)c1nnc2n1CCCCC2 (stereo not drawn) , thanks.
6.84

Percent Effect lookup needed for CCc1noc(C(C)N2CCOCC2)n1 (stereo not drawn) , thanks.
5.85

Percent Effect lookup needed for CN1CCCC1CNC(=O)CCCOCc1ccccc1 (stereo not drawn) , thanks.
-4.01

Percent Effect lookup needed for N#Cc1ccc(S(=O)(=O)NC(=O)C2CC2)c(C(F)(F)F)c1 , thanks.
6.49

Percent Effect lookup needed for COCCN1C[C@@H]2CN(Cc3cccc(F)c3)CCC[C@]2(C(=O)O)C1 , thanks.
8.53

Percent Effect lookup needed for CN(Cc1ccsc1)C(=O)Nc1ccc(S(=O)(=O)N(C)C)cc1 , thanks.
-0.0819

Percent Effect lookup needed for CC(NC(=O)N(C)Cc1ccncc1)c1nncn1C (stereo not drawn) , thanks.
13.2

Percent Effect lookup needed for CC(C(=O)Nc1ncccn1)N1CCCN(c2nccs2)CC1 (stereo not drawn) , thanks.
14.8

Percent Effect lookup needed for Cc1nc(NC(=O)CN2CCc3c(nc(C(C)C)n3C)C2)sc1C , thanks.
19.8

Percent Effect lookup needed for Cc1cnc(CN(C)C2CCN(Cc3nc4ccccc4n3C)C2)o1 (stereo not drawn) , thanks.
22.6

Percent Effect lookup needed for O=C(c1n[nH]c2c1CCN(Cc1nccs1)C2)N1CCCC1 , thanks.
8.33

Percent Effect lookup needed for COCCNC(=O)c1cc(S(=O)(=O)N2CCCCC2)cs1 , thanks.
14.6

Percent Effect lookup needed for COC(=O)C1CCN(c2cncc(-n3nc(C)cc3C)n2)CC1 , thanks.
15.6

Percent Effect lookup needed for Cn1nc(C(=O)N2CCCCC2c2nc3cc(F)ccc3[nH]2)ccc1=O (stereo not drawn) , thanks.
9.82

Percent Effect lookup needed for Cc1cccc(N2CCN(CCCNC(=O)c3nccn3C)CC2)c1 , thanks.
12.9

Percent Effect lookup needed for c1cnc2c(c1)cc(C1CCOCC1)n2CCN1CCOCC1 , thanks.
12.5

Percent Effect lookup needed for COc1cccc(-n2nnc(C(=O)N3CCCC3)c2C)c1 , thanks.
7.25

Percent Effect lookup needed for c1cnnc(NCC2CN(CCN3CCCCC3)CCO2)c1 (stereo not drawn) , thanks.
1.01

Percent Effect lookup needed for O=S(=O)(CCNC1CCc2ncnn2C1)c1ccccc1 (stereo not drawn) , thanks.
5.09

Percent Effect lookup needed for Cc1nn(C)c(N(C)C)c1CNCc1ccccc1CN(C)C , thanks.
15.9

Percent Effect lookup needed for O=S(=O)(C1CC1)N1CCC2(CC1)CC(Oc1cccnc1)CO2 (stereo not drawn) , thanks.
-1.15

Data credit: ChEMBL document CHEMBL3988442
